system tested: CREB1 (Homo sapiens)
Construct: made in house
Sequence (P16220 269-327 limits assumed): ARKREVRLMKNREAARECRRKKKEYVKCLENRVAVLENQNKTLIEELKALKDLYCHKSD
protocol description: Direct-binding FRET assay
condition summary: 23°C; N-terminal rhodamine design; mean or single
Procedure: The direct binding assay was performed manually in 384-well plates and is similar to a previously described assay. Wells were filled with 20 μL of 1 mM TCEP-HCl. […] Briefly, the Kd of the designed peptide homodimer was experimentally determined and used with previously determined target homodimer Kd values to determine the heterodimer Kd. […] A minimum 15% change in the donor fluorescence upon titrating the acceptor peptide from 0 to 1000 nM was required for a fit to be attempted. […]
pKd: −log10 of the molar value. Where no end group is shown, it is not given here.
readout: pKd

For the sequence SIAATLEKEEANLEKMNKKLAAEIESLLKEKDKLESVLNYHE [JUN-d1] , give its reported pKd.
< 6.00

====

system tested: ATF6B (Homo sapiens)
Sequence (Q99941 325-388 limits assumed): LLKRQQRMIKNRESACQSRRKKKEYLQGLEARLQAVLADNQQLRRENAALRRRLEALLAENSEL
protocol description: Direct-binding FRET assay
Parameters: made in house
condition summary: 23°C; N-terminal rhodamine design; mean or single; read-out: Kd
Where no end group is shown, it is not given here.
readout: Kd

For the sequence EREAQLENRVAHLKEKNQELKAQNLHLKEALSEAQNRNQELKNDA [XBP1-d1] , give its reported Kd.
> 1 µM

For the sequence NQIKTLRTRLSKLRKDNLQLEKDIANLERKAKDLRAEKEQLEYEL [ATF4-d1] , give its reported Kd.
> 1 µM

For the sequence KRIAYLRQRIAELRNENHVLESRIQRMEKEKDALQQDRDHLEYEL [ATF5-d1] , give its reported Kd.
> 5 µM

====

system tested: NFE2L1 (Homo sapiens, UniProt Q14494)
Sequence (Q14494 654-717 limits assumed): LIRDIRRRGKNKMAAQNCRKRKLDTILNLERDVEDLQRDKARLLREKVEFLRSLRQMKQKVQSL
protocol description: Direct-binding FRET assay
Set-up: made in house
condition summary: 4°C; C-terminal fluorescein design as donor, TAMRA target titrated; read-out: Kd
pKd: −log10 of the molar value. Where no end group is shown, it is not given here.
readout: pKd

For the sequence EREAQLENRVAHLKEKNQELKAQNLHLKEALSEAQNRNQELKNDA [XBP1-d1] , give its reported pKd.
< 6.00

====

system tested: BATF2 (Homo sapiens, UniProt Q8N1L9)
Construct: made in house
Sequence (Q8N1L9 17-80 limits assumed): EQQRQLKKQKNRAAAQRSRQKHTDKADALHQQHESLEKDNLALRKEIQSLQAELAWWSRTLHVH
protocol description: Direct-binding FRET assay
condition summary: 23°C; C-terminal rhodamine design; mean or single; read-out: Kd
Where no end group is shown, it is not given here.
Answer each item with its documented Kd.

GET Kd | system: BATF2 (Homo sapiens, UniProt Q8N1L9) | item: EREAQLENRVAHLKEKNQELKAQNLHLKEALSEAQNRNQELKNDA [XBP1-d1]
> 1000 nM

GET Kd | system: BATF2 (Homo sapiens, UniProt Q8N1L9) | item: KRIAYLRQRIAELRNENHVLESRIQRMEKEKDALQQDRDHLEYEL [ATF5-d1]
> 5000 nM

GET Kd | system: BATF2 (Homo sapiens, UniProt Q8N1L9) | item: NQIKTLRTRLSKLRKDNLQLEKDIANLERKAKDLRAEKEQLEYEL [ATF4-d1]
> 1000 nM

====

system tested: MAFG (Homo sapiens)
Sequence (O15525 51-114 limits assumed): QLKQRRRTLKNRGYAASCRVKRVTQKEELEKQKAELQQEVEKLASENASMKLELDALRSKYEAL
protocol description: Direct-binding FRET assay
Set-up: made in house
condition summary: 23°C; C-terminal fluorescein design as donor, TAMRA target titrated; read-out: Kd
Where no end group is shown, it is not given here.
readout: Kd

For the sequence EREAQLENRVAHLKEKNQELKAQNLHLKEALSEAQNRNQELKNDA [XBP1-d1] , give its reported Kd.
> 1000 nM

Every entry's value here was drawn from paper PMC4335062.
